- System: Glutamate receptor ionotropic, NMDA 3A (GRIN3A) ligand-binding domain
- measurement-protocol: binders of NR3A ligand-binding domain, primary screen, biophysical, differential scanning fluorimetry, uHTS (AID 1259313)
- conditions-used: NR3A LBD differential scanning fluorimetry, at 25 µM, 0% = protein alone, 100% = glycine-bound protein
The whole screen tested about 340,000 compounds, of which about 8,500 (2.5%) were called active.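 The calls were made as follows: active = melting temperature shift of at least 10% of the positive control shift, at one fixed dose; inactive = the rest.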 This excerpt belongs to a sample that is enriched for actives.
Field 'call' accepts active, inactive

Completed entries (count: 6):
compound: CCn1c(SCc2cccc(C(=O)O)c2)nnc1-c1ccc(Cl)cc1
tested-on: Glutamate receptor ionotropic, NMDA 3A (GRIN3A) ligand-binding domain
class-name: inactive

compound: COc1ccc(C2=Nn3c(nnc3-c3ccccc3OC)SC2)cc1OC1CCCC1
tested-on: Glutamate receptor ionotropic, NMDA 3A (GRIN3A) ligand-binding domain
class-name: inactive

compound: NC(=O)C[C@@H]1NC(=O)CNC(=O)c2cc([N+](=O)[O-])cc(I)c2NCCC(C(N)=O)NC1=O (stereo not given in full)
tested-on: Glutamate receptor ionotropic, NMDA 3A (GRIN3A) ligand-binding domain
class-name: inactive

compound: CCCSC1=C(C#N)C(c2ccccc2C)C(C(=O)OC)C(=O)N1 (stereo not given)
tested-on: Glutamate receptor ionotropic, NMDA 3A (GRIN3A) ligand-binding domain
class-name: inactive

compound: CCn1c(SCC(=O)NC2CC2)nnc1-c1ccccc1OC
tested-on: Glutamate receptor ionotropic, NMDA 3A (GRIN3A) ligand-binding domain
class-name: inactive

compound: CCCC(=O)Nc1ccc(C(=O)N/N=C/c2ccc[nH]2)cc1
tested-on: Glutamate receptor ionotropic, NMDA 3A (GRIN3A) ligand-binding domain
class-name: inactive

Request: Field: outcome | Entry: N#CCCN(CCC#N)c1nnc(-c2ccccc2)s1
Response: inactive

====

- System: Glutamate receptor ionotropic, NMDA 3A (GRIN3A) ligand-binding domain
- measurement-protocol: binders of NR3A ligand-binding domain, primary screen, biophysical, differential scanning fluorimetry, uHTS (AID 1259313)
- conditions-used: NR3A LBD differential scanning fluorimetry, at 25 µM, 0% = protein alone, 100% = glycine-bound protein
In all, about 340,000 compounds went through this assay and about 8,500 (2.5%) were called active.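 Rule for the calls: active = melting temperature shift of at least 10% of the positive control shift, at one fixed dose; inactive = the rest.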 The list comes from a sample in which actives are over-represented; it also holds close analogues and randomly drawn compounds.
Your response should consist of one outcome taken from active, inactive

molecule: NS(=O)(=O)c1ccc(NC(=S)N2CCCC2)cc1
class-name: inactive

molecule: O=[N+]([O-])c1cc(C(F)(F)F)ccc1NCCc1ccncc1
class-name: inactive

molecule: COc1ccc(N2CCN(C(=S)Nc3ccc(S(N)(=O)=O)cc3)CC2)cc1
class-name: inactive

molecule: COc1ccc(N2CCN(CCCNC(=O)C3CCN(S(=O)(=O)N4CCOCC4)CC3)CC2)cc1
class-name: inactive

molecule: Nc1nnc(SCC(=O)Nc2ccc3nc(SCC(=O)Nc4ccccc4)sc3c2)s1
class-name: active

Request: Entry CN(CC(=O)Nc1ccc(Cl)cc1)CC(=O)Nc1cccc2ccccc12 : call = ?
Response: inactive

====

Recorded Tm shift relative to glycine control, one value per entry.
- Test system: Glutamate receptor ionotropic, NMDA 3A (GRIN3A) ligand-binding domain
- measurement-protocol: binders of NR3A ligand-binding domain, primary screen, biophysical, differential scanning fluorimetry, uHTS (AID 1259313)
- conditions-used: NR3A LBD differential scanning fluorimetry, at 25 µM, hits give high values, 0% = protein alone, 100% = glycine-bound protein
About 8,500 (2.5%) of roughly 340,000 compounds were called active. The full list was thinned out, with actives kept by preference.

Example cases with answers are listed next.
compound: O=C(CSc1nc(-c2ccccc2)cs1)Nc1cccc([N+](=O)[O-])c1
Tm shift relative to glycine control: 34.4% (active)
--
compound: CCCCOC(=O)Nc1sc2nc(C)cc(C)c2c1-n1cccc1
Tm shift relative to glycine control: 11% (active)
--
compound: CC(C)c1c(C(=O)N/N=C/c2ccc(-c3ccccc3)cc2)nnn1-c1nonc1N
Tm shift relative to glycine control: 1.62% (inactive)
--
compound: CCN(CC)c1ccc(NC(=O)c2ccc(=O)[nH]c2)cc1S(=O)(=O)Nc1ccc(OC)cc1
Tm shift relative to glycine control: -4.98% (inactive)

Request: Param readout= Tm shift relative to glycine control; system= Glutamate receptor ionotropic, NMDA 3A (GRIN3A) ligand-binding domain; entry= O=C(CSc1ncn[nH]1)Nc1nc(-c2cccc([N+](=O)[O-])c2)cs1 ; returns value.
Response: -2.42% (inactive)

Request: Lab note: need Tm shift relative to glycine control for Cc1cc(C)c2c(-n3cccc3)c(NC(=O)OCc3ccccc3)sc2n1 on Glutamate receptor ionotropic, NMDA 3A (GRIN3A) ligand-binding domain, anyone have it?
Response: 0.08% (inactive)

Request: Param readout= Tm shift relative to glycine control; system= Glutamate receptor ionotropic, NMDA 3A (GRIN3A) ligand-binding domain; entry= COC(=O)Nc1sc2nc(C)cc(C)c2c1-n1cccc1 ; returns value.
Response: -4.15% (inactive)

Request: Tm shift relative to glycine control of Cc1nc(C)c(-c2nnc(-c3cccc(S(=O)(=O)N(C)C)c3)o2)cc1C(=O)NN on Glutamate receptor ionotropic, NMDA 3A (GRIN3A) ligand-binding domain?
Response: 4.67% (inactive)

Request: Any idea what Tm shift relative to glycine control came out for Nc1nc(SCc2ccc([N+](=O)[O-])cc2)c2ncn(C3OC(CO)C(O)C3O)c2n1 (stereo not given) on Glutamate receptor ionotropic, NMDA 3A (GRIN3A) ligand-binding domain?
Response: 1.21% (inactive)

Request: API: value(readout=Tm shift relative to glycine control, system=Glutamate receptor ionotropic, NMDA 3A (GRIN3A) ligand-binding domain) for record COc1ccccc1-n1cnc2cc(NS(=O)(=O)c3ccccc3)ccc21
Response: 0.96% (inactive)

====

- Tested on: Glutamate receptor ionotropic, NMDA 3A (GRIN3A) ligand-binding domain
- measurement-protocol: binders of NR3A ligand-binding domain, primary screen, biophysical, differential scanning fluorimetry, uHTS (AID 1259313)
- conditions-used: NR3A LBD differential scanning fluorimetry, at 25 µM, hits give high values, 0% = protein alone, 100% = glycine-bound protein
Among all 340,000 compounds or so, about 8,500 (2.5%) were called active. This is one part of a sample in which actives are shown more often than they occur.
quantity-measured: Tm shift relative to glycine control (%)
State just the number; it will be interpreted in %.

For orientation, consider the following solved cases.
molecule: Cc1cccc(C(=O)Nc2ccc3c(c2)C(=O)N(CC(C)C)C3=O)c1
recorded-value: 0.17

molecule: C/C(CC(O)(/C=N/O)c1ccccc1)=N\O (configuration not stated)
recorded-value: 1.21

molecule: O=C(c1cc(-c2cccc(O)c2)on1)N1CCc2ccccc2C1
recorded-value: -13.5

molecule: Cc1ccc(NC(=O)COC(=O)CN2CCCCCC2=O)c(C)c1
recorded-value: -0.17

molecule: NS(=O)(=O)c1ccc(NC(=O)/C=C/c2ccccc2Cl)cc1
recorded-value: 22.5

Request: So what's the measured Tm shift relative to glycine control for this one? Cc1nc(SCc2ccc(F)cc2)c([N+](=O)[O-])[nH]1
Response: 13.7

Request: I'd like to know its Tm shift relative to glycine control. The molecule in question is CN(c1ccc(C(=O)N2CCc3ccccc3C2)cc1)S(C)(=O)=O
Response: -0.88

Request: Endpoint output: Tm shift relative to glycine control of C[C@@H](NC(=O)OC(C)(C)C)c1nnc(S(=O)(=O)Cc2ccccc2)o1 . Value?
Response: 0

Request: Sample Cc1nc(SCC(=O)c2ccccc2)c([N+](=O)[O-])[nH]1 — what was its Tm shift relative to glycine control?
Response: -0.87

Request: Find the recorded Tm shift relative to glycine control belonging to CCc1ccccc1NC(=O)CSc1nnc([C@@H](NC(=O)OC(C)(C)C)C(C)CC)o1 (some centres not stated) and report it.
Response: -1.3

====

- System: Glutamate receptor ionotropic, NMDA 3A (GRIN3A) ligand-binding domain
- measurement-protocol: binders of NR3A ligand-binding domain, primary screen, biophysical, differential scanning fluorimetry, uHTS (AID 1259313)
- conditions-used: NR3A LBD differential scanning fluorimetry, at 25 µM, hits give high values, 0% = protein alone, 100% = glycine-bound protein
Out of some 340,000 compounds screened, about 8,500 (2.5%) were called active. The entries come from a sample that favours actives as a whole.
quantity-measured: Tm shift relative to glycine control (%)
Please reply with the bare figure in % and do not write the unit itself.

Answered cases to consult:
compound: Cc1ccc(OCC(=O)N2CCN(C(=O)c3cccnc3)CC2)cc1
unit: %
Tm shift relative to glycine control: -1.15
--
compound: CN(NS(=O)(=O)c1cccs1)c1ncc(C(F)(F)F)cc1Cl
unit: %
Tm shift relative to glycine control: -0.95
--
compound: Cc1nn(-c2ccccc2)c2[nH]c(C(F)(F)F)cc(=O)c12
unit: %
Tm shift relative to glycine control: -11.2
--
compound: COc1cccc(NC(=O)c2cc(S(=O)(=O)N3CCc4ccccc43)cn2C)c1
unit: %
Tm shift relative to glycine control: 1.72
--
compound: CN(C)S(=O)(=O)c1ccc(C(=O)NCC2(N3CCOCC3)CCCCC2)cc1
unit: %
Tm shift relative to glycine control: -0.34
--
compound: CCN(c1ccccc1)S(=O)(=O)c1cccc(C(=O)NCc2ccccc2CN2CCOCC2)c1
unit: %
Tm shift relative to glycine control: 2.34
--
compound: O=C(OC12CC3CC(CC(C3)C1)C2)c1ccc(NCc2cc(O)ccc2O)cc1
unit: %
Tm shift relative to glycine control: 33.5
--
compound: CCCc1cc(-c2nc(-c3ccc(C)cc3)cs2)ccn1
unit: %
Tm shift relative to glycine control: -8.16

Request: Look at this compound and give its reported Tm shift relative to glycine control. Cc1ccc(-c2csc(-c3c[nH]c4ccccc34)n2)cc1
Response: 25.6

Request: Need Tm shift relative to glycine control of COc1ccc(-c2ccc3nnc(SCC(=O)Nc4ccc(NC(C)=O)cc4)n3n2)cc1 , thanks.
Response: -5.8

Request: Would you mind telling me what Tm shift relative to glycine control value was observed for O=C(COC(=O)c1ccco1)Nc1ccc(Cl)cn1 ?
Response: -4.19

Request: Returns the measured Tm shift relative to glycine control for the input compound. Input: COc1cc(-c2c(-c3ccc4c(c3)OCO4)noc2C)ccc1F
Response: -2.27

Request: Request the reported Tm shift relative to glycine control associated with O=C(CN1CCOCC1)Nc1c2c(nc3c1CCC3)CCC2
Response: 10.2

Request: Can you look up the measured Tm shift relative to glycine control of CCn1c(SCCC(C)C)nnc1-c1c[nH]c2ccccc12 for me?
Response: -26.6

Request: Query (compound): CNC(=S)N/N=C/c1ccc(N2CCOCC2)s1 ; field requested: Tm shift relative to glycine control
Response: -0.99

Request: # lookup: Tm shift relative to glycine control of COC(=O)C1CCN(C(=O)c2ccc3oc(Cc4ccc(Cl)cc4)nc3c2)CC1
Response: 0.94
